Molecular target: Vhr1 (UniProt P40522)
Sequence: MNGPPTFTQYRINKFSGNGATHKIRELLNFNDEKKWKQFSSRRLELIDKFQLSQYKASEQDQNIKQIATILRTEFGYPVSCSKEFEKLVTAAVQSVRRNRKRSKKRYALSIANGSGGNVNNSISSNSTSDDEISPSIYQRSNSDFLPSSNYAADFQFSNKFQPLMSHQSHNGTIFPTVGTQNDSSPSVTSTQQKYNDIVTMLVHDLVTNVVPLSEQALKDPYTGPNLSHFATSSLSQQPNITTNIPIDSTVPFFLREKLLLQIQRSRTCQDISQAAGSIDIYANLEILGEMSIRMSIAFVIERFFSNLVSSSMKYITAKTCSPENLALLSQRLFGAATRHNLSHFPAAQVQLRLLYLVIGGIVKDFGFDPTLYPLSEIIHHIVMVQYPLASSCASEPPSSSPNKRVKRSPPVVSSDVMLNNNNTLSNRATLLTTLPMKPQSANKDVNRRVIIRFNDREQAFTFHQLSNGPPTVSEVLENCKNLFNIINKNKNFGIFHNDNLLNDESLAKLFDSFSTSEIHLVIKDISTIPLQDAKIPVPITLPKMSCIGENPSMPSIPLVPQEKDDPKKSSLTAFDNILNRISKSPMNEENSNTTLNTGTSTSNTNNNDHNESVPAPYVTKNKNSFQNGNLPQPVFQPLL
Assay: PBM E-score (8-mer binding enrichment) (E-score (-0.5 to 0.5)); higher = stronger / more preferred TF binding
Conditions: protein concentration: 200 nM; construct: GST-full length
In all, about 33,000 sequences were measured (“E-score (-0.5 to 0.5)”: median about -0.012, highest 2% from about 0.27 on). The full list was thinned out, with the highest values kept by preference.
measurement_label: PBM E-score

ordered_residues | PBM E-score
ACTGGCCT | -0.135
AGTGACTA | 0.367
GTACCTAA | -0.0816
ACTCTTAC | 0.163
GGTGCAAC | -0.183
GGTGACTA | 0.44
AACCAATT | 0.0547
AACTCAGA | 0.0696
CTGGGTAC | 0.196
AGTGACGG | 0.00494

### Prompt // fetch PBM E-score; item: CTTGCTGC ; system: Vhr1 (UniProt P40522)
### Response -0.113

### Prompt // fetch PBM E-score; item: AGCTTGTA ; system: Vhr1 (UniProt P40522)
### Response -0.0135

### Prompt // fetch PBM E-score; item: ATTCTATC ; system: Vhr1 (UniProt P40522)
### Response -0.154

### Prompt // fetch PBM E-score; item: AGTGACTG ; system: Vhr1 (UniProt P40522)
### Response 0.288

----------
Quick reference for PBM E-score among some sequences
Molecular target: Vhr1 (UniProt P40522)
Sequence: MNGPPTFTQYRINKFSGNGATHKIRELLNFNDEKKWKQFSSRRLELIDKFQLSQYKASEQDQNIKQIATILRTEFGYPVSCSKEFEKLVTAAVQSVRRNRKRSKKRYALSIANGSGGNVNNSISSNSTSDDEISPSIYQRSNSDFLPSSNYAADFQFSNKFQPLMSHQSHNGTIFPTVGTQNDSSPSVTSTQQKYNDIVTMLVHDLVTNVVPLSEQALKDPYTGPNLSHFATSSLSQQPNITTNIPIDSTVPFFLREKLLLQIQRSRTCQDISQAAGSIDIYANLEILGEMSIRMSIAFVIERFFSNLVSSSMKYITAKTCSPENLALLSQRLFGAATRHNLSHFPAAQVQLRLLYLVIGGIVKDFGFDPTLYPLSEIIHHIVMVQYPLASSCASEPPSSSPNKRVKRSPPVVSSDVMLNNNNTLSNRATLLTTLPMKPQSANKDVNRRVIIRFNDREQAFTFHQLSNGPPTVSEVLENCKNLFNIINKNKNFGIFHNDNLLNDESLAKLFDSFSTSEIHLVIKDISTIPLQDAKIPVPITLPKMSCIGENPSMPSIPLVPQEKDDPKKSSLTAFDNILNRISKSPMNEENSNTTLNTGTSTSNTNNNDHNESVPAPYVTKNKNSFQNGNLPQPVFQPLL
Test: PBM E-score (8-mer binding enrichment) (E-score (-0.5 to 0.5)); higher = stronger / more preferred TF binding
Settings: protein concentration: 200 nM; construct: GST-full length
Whole data set: some 33,000 sequences, median “E-score (-0.5 to 0.5)” near -0.012, cut for the highest 2% near 0.27. This excerpt belongs to a sample that is enriched for the highest values.
Kindly provide the number alone.

Some solved entries appear below for comparison.
ordered_residues | PBM E-score
CGGTCACA | 0.0193
TCAGAACA | 0.00034
AGGCGTGA | 0.019
GAATCAGC | 0.307
GCACCTCC | -0.136
TACCGCGA | 0.107

### Prompt Report PBM E-score for CGAAACCC
### Response -0.0543

### Prompt Report PBM E-score for AGAGTACT
### Response 0.0467

### Prompt Report PBM E-score for AGTATGAG
### Response 0.0941

### Prompt Report PBM E-score for GCTGGCGA
### Response -0.0575

### Prompt Report PBM E-score for CCTTCCCC
### Response 0.0876

### Prompt Report PBM E-score for AATGGCTC
### Response 0.137

### Prompt Report PBM E-score for ACCACCCA
### Response 0.192

### Prompt Report PBM E-score for TAAGTACA
### Response -0.0281

### Prompt Report PBM E-score for ACTAAACG
### Response -0.0382

### Prompt Report PBM E-score for CCGGTCCG
### Response 0.112

### Prompt Report PBM E-score for AGTCGAGA
### Response 0.0118

### Prompt Report PBM E-score for AACCGCGT
### Response 0.0481

### Prompt Report PBM E-score for ACAGTTCA
### Response 0.0273

### Prompt Report PBM E-score for AACCGCGA
### Response 0.278

### Prompt Report PBM E-score for AGTCGGCA
### Response 0.282

### Prompt Report PBM E-score for TAATCAGA
### Response 0.146

----------
Molecular target: Vhr1 (UniProt P40522)
Sequence: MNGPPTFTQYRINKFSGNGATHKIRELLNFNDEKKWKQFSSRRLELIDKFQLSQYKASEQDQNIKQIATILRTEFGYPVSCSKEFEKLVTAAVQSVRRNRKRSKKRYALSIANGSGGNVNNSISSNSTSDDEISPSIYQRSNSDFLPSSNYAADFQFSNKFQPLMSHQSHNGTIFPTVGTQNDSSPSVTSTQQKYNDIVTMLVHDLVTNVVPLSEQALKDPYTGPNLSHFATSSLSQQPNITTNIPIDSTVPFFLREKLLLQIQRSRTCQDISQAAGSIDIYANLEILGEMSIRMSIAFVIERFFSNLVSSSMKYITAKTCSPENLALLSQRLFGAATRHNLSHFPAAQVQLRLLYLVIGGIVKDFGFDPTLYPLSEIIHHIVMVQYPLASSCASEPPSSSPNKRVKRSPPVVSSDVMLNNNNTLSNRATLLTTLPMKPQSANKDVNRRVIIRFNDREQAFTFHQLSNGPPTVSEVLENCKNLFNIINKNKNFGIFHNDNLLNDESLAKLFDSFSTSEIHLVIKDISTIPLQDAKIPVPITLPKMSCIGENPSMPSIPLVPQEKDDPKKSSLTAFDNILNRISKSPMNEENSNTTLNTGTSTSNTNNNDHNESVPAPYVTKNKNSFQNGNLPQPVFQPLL
Test: PBM E-score (8-mer binding enrichment) (E-score (-0.5 to 0.5)); higher = stronger / more preferred TF binding
Settings: protein concentration: 200 nM; construct: GST-full length
In all, about 33,000 sequences were measured (“E-score (-0.5 to 0.5)”: median about -0.012, highest 2% from about 0.27 on). The sample holds the highest values, similar sequences and a random draw of the others, so the mix is not that of the screen.
measurement_label: PBM E-score
Kindly provide the number alone.

ordered_residues | PBM E-score
CGTCGGCC | -0.143
CCTGAGTC | 0.461
AGTCCACT | -0.158

Could you now consider this next sequence?
### Prompt Report PBM E-score for CCTGAGGC
### Response -0.096

----------
Target: Vhr1 (UniProt P40522)
Sequence: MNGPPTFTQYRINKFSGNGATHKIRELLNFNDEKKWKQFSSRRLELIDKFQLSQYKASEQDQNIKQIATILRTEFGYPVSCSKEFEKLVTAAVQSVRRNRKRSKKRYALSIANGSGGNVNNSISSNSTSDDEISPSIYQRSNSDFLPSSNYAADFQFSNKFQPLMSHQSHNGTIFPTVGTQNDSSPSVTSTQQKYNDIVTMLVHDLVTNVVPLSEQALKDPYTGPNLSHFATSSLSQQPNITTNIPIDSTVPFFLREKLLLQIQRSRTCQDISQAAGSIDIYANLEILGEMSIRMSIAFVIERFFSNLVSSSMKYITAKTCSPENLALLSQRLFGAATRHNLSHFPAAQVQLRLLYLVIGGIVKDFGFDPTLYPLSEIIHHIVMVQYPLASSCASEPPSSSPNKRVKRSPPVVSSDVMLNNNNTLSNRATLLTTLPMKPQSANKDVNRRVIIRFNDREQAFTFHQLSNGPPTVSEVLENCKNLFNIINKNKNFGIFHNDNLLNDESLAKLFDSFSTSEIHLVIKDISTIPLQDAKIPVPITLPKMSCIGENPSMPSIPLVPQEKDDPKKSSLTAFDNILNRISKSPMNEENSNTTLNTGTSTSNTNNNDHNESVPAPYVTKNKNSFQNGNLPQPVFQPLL
Test: PBM E-score (8-mer binding enrichment) (E-score (-0.5 to 0.5)); higher = stronger / more preferred TF binding
Conditions: protein concentration: 200 nM; construct: GST-full length
In all, about 33,000 sequences were measured (“E-score (-0.5 to 0.5)”: median about -0.012, highest 2% from about 0.27 on). Only a selection was taken, and the highest values are over-represented in it overall.
# PBM E-score >= 0.1 gives Yes, anything below gives No

ordered_residues | class_assignment
GAGTACCA | Yes
TACCAACA | Yes

### Prompt Record GATTCAGC ; criterion: PBM E-score no lower than 0.1. Met?
### Response Yes

### Prompt Record CAGAAATG ; criterion: PBM E-score no lower than 0.1. Met?
### Response No

### Prompt Record GGCGTTAC ; criterion: PBM E-score no lower than 0.1. Met?
### Response No

### Prompt Record GAGAAAGA ; criterion: PBM E-score no lower than 0.1. Met?
### Response No
